# maps each entry to its Percent Effect
- test-target: Arginase-2, mitochondrial (Homo sapiens) (UniProt P78540)
- Sequence (whole entry): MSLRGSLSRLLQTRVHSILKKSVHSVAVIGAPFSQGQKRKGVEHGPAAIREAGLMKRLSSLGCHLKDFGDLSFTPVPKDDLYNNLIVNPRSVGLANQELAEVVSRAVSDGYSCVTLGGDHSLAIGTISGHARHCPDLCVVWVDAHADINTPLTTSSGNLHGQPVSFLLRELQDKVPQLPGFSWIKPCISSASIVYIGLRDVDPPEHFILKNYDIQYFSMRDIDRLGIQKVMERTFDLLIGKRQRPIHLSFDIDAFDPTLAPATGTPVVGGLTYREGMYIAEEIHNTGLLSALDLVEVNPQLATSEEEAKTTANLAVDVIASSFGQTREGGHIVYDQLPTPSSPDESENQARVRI
- assay: in vitro enzyme assay to detect the production of urea directly proportional to the activity of Arginase II; also: in the data most compounds retested in dose-response had high values
- Format: functional
- Design: scale not given: direction of the effect not stated beside the values
- conditions-used: 33.3 µM
Only the number, expressed in %, is required.

Solved cases (6 shown):
compound | Percent Effect, %
c1cnn(CC2CN(Cc3noc(C4CC4)n3)CCO2)c1 (stereo not given) | -3.1
CCc1csc(C2CCCN(C(=O)C3=NN(CC)C(=O)CC3)C2)n1 (stereo not given) | 2.13
Cc1cc(CN(C)C(=O)c2ccc(F)cc2Br)no1 | -1.23
Cc1cccc(CN2CCc3nnc(CN4CCCC4=O)n3CC2)n1 | -2.28
O=C(NCc1cc[nH]n1)N1CCCCC(N2CCCC2)C1 (stereo not given) | 2.16
CC(NC(=O)NCCCn1cncn1)c1ccccc1Cl (stereo not given) | 3.99

Consider the compound Cc1cnn(CCC(=O)N2CCCC(c3nc(C)no3)C2)c1 (stereo not given) and give its measured Percent Effect.
-4.41

Now try CCN1CCN(CC(C)(O)c2cccc(C(F)(F)F)c2)CC1 (stereo not given) .
-3.48

Try Cc1nc(N2CCOCC2)nc2c1CCN(C(=O)NC1CCCC1)CC2 next.
-6.16

Now give it for c1coc(-c2nnc(CN3CCCC(CN4CCCCCC4)C3)o2)c1 (stereo not given) too.
-7.1

Then this compound: Cc1cnn(C2CCCN(C(=O)CCCOc3cccc(F)c3)C2)c1 (stereo not given)
4.52

Lookup Cc1nn(C)c(C)c1C1COCCN1C(=O)Cc1cccc(F)c1 (stereo not given)
-1.82

# iterate: COCC1COCCC12CCN(C(=O)CCOc1ccccc1)CC2 (stereo not given)
-2.5

====

- Test system: Trypanosoma cruzi
- assay: Trypanosoma cruzi phosphomannomutase and mannose-1-phosphate guanylyltransferase assay
- Type: functional
- Set-up: scale not given: direction of the effect not stated beside the values
- conditions-used: 10 µM
quantity-measured: Percent Effect (%)
Your answer is read as %, so omit the unit and give the number.

compound | Percent Effect [%]
Cc1ccc(NC(=O)N2CCC(NC(=O)c3ccc(C)o3)CC2)cc1 | 2.45
CS(=O)(=O)NCC1CCCN(C(=O)c2ccc(Cl)o2)C1 (stereo unspecified) | -0.746
CCCS(=O)(=O)N1CCN(c2cc(-n3cnc(C)c3C)nc(C)n2)CC1 | -3.25
Cc1cccc(CN2C[C@@H]3COC[C@]3(CNC(=O)c3ccsc3)C2)n1 | 1.27
Cc1cccc(C)c1OCCC(=O)N1CCC(c2nncn2C)CC1 | 6.74

Moving on to the next compound.
Which value of Percent Effect has been reported for CNc1cc(C2CCCN2Cc2ccccc2OCC(=O)O)ccn1 (stereo unspecified) in the records?
-3.16

====

- test-target: Tyrosyl-tRNA synthetase, putative (Trypanosoma cruzi (strain CL Brener)) (UniProt Q4DSP6)
- assay: Trypanosoma cruzi tyrosyl tRNA synthetase (TcYRS) SOP
- Type: functional
- Parameters: scale not given: direction of the effect not stated beside the values
- conditions-used: 30 µM
quantity-measured: Percent Effect (%)
# output: bare number, implied unit %

Consider the molecule shown here: O=C(c1ccc(Br)o1)N1CCN(Cc2ccc(OC(F)(F)F)cc2)CC1 What is its recorded Percent Effect?
7.5

And CCc1nnsc1C(=O)NCCn1nc2ccccn2c1=O ?
18.3

====

- test-target: Tyrosyl-tRNA synthetase, putative (Trypanosoma cruzi (strain CL Brener))
- Sequence (whole entry): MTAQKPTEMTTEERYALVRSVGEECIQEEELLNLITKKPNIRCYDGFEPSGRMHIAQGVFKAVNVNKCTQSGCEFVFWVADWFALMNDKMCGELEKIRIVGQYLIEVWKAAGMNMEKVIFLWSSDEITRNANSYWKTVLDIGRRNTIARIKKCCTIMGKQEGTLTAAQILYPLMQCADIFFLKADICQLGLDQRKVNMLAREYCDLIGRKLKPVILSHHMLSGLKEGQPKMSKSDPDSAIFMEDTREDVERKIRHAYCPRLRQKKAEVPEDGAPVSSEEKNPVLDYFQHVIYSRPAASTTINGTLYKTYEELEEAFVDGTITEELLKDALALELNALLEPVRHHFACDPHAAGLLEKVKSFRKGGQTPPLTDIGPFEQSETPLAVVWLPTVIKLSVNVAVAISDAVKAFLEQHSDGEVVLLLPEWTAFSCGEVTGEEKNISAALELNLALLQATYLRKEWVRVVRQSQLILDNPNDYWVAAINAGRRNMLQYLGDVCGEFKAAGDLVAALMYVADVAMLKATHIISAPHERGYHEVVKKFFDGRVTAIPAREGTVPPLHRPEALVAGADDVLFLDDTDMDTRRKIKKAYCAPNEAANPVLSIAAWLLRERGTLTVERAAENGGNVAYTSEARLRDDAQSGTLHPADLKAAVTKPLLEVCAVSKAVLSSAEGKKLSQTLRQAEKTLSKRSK
- assay: Trypanosoma cruzi tyrosyl tRNA synthetase (TcYRS) SOP
- Assay type: functional
- Set-up: scale not given: direction of the effect not stated beside the values
- conditions-used: 30 µM
quantity-measured: Percent Effect (%)
Give the value, in units of %, as a plain number.

See these solved cases before continuing.
molecule | display-unit | Percent Effect
O=S(=O)(CCCN1CCCC1Cn1cncn1)c1ccccc1 (stereo not given) | % | 21.2
COc1ccc(N2CCC(C(=O)/N=c3/[nH]ccs3)CC2)nn1 | % | 12.8
CCNC(=O)N1CCCC(c2noc(CC)n2)C1 (stereo not given) | % | 11.8

What Percent Effect value was documented for this molecule, COc1c(CNCc2ccc(CN(C)C)cc2)c(C(C)C)nn1C ?
4.88

Another molecule to check: O=C(CN1CCCC(Cn2cncn2)C1)NCCOc1ccccc1 (stereo not given)
0

Queued: O=C(NCc1cc[nH]n1)NCC(c1ccc(F)cc1)N1CCOCC1 (stereo not given)
20.5

Same again, this time with Cc1noc(C2CCCCN2C(=O)NC2CCCC2)n1 (stereo not given)
2.6

Same question for Cc1noc(C)c1C(=O)N1C[C@H]2CCC[C@@]2(COc2ccccn2)C1 please.
12.8

====

- test-target: Tyrosyl-tRNA synthetase, putative (Trypanosoma cruzi (strain CL Brener)) (UniProt Q4DSP6)
- assay: Trypanosoma cruzi tyrosyl tRNA synthetase (TcYRS) _High Tyrosine SOP; also: in the data most compounds retested in dose-response had high values
- Format: functional
- Set-up: scale not given: direction of the effect not stated beside the values
- conditions-used: 30 µM
quantity-measured: Percent Effect (%)
Expressed in %, but write only the number.

Solved cases (5 shown):
molecule | test-target | display-unit | quantitative-readout
CCc1ccc(C(=O)N2CCCC(n3cncn3)C2)o1 (centres undefined) | Tyrosyl-tRNA synthetase, putative (Trypanosoma cruzi (strain CL Brener)) (UniProt Q4DSP6) | % | 3.16
Fc1ccc(OCc2noc(CN3CCc4cncnc4C3)n2)cc1 | Tyrosyl-tRNA synthetase, putative (Trypanosoma cruzi (strain CL Brener)) (UniProt Q4DSP6) | % | 31.9
Cc1nn(-c2ccccc2)cc1C(=O)N1CCCC(n2cccn2)C1 (centres undefined) | Tyrosyl-tRNA synthetase, putative (Trypanosoma cruzi (strain CL Brener)) (UniProt Q4DSP6) | % | 4.74
O=C(O)c1cc(S(=O)(=O)Nc2ccc(Cl)cc2)cc2c1OCCO2 | Tyrosyl-tRNA synthetase, putative (Trypanosoma cruzi (strain CL Brener)) (UniProt Q4DSP6) | % | -18.8
Cc1cnn(CC2CN(CC(=O)NCCc3cccs3)CCO2)c1 (centres undefined) | Tyrosyl-tRNA synthetase, putative (Trypanosoma cruzi (strain CL Brener)) (UniProt Q4DSP6) | % | 4.74

# get_value(readout='Percent Effect', item= CCn1cc(Br)c(C(=O)NCc2cnn(C)c2)n1 )
8.6

// next record Cc1cccc(CN2C[C@@H]3CN(C(=O)[C@H]4CCCO4)C[C@@H]3C2=O)c1
9.66

And then Cc1ccc2cnn(CCC(=O)NCc3c(C)nn(C)c3C)c2c1 , what is it?
3.23

Could you do the same for CC(=O)N1CCn2c(C(=O)N(C)C)cnc2C1 , please?
3.19

Now this one: Cc1cccnc1NC(=O)C(C)Cn1nc(C(F)(F)F)cc1C (centres undefined)
3.17

For CCC(CC)C(=O)N1CCC2(C1)CN(c1ccccc1)C(=O)CN2C (centres undefined) then?
5.79

Further, for Cc1nc(C2CCCN2CCCS(=O)(=O)N(C)C)no1 (centres undefined) ?
-5.39

For c1cncc(CN2CCc3ncnc(C4CCOC4)c3CC2)c1 (centres undefined) then?
5.32

Please answer likewise for O=C1COc2ccc(C(=O)NS(=O)(=O)c3ccc(F)cc3F)cc2N1
4.43

Repeat with c1cnn(CCN2CCOC(Cn3cncn3)C2)c1 (centres undefined)
10.3

Subsequent entry: CC(C)N1CCC(Cc2cnc(-c3cccc(C(=O)O)c3)cn2)C1 (centres undefined)
0

Thanks! And Cc1cc(C)c(CNC(=O)N(C)CC2CCCCO2)c(=O)[nH]1 (centres undefined) ?
4.41

Follow-up item: Cc1nn(C)c(C)c1C1COCCN1C(=O)Cc1cccc(F)c1 (centres undefined)
1.07

Note, next up: Cn1cc(C2CCCN2Cc2csc(-c3ccsc3)n2)cn1 (centres undefined)
-24.1

Record: O=C(CCc1ccccc1)NCC1CCN(Cc2ccsc2)CC1
2.12

Would you kindly repeat that for Cn1ccnc1CN1C[C@@H](CN2CCC(CO)CC2)[C@@H](CO)C1 ?
1.59

Thanks! And Cc1nn(C)cc1CCC(=O)N1CCCC(n2cncn2)C1 (centres undefined) ?
3.68

Next record, please: COc1ccc(CN2CCn3cc(Cn4cccn4)nc3C2)cc1
5.29

Input O=C1CCCN1Cc1nnc2n1CCN(Cc1ccoc1)CC2
-1.93
